The origin of these recorded values is patent US20220411492A1.

Molecular target: murine CLDN18.2 (mCLDN18.2) (murine) (UniProt P56857)
Assay: FACS, HEK293-mCLDN18.2 cells
pEC50 values for the binders below.
Answer as the number alone; pEC50 is minus log10 of concentration in mol/L.

Qu. Give pEC50 for ch-126A11 (antibody, V domains shown, also called chimeric antibody of clone 126A11) VH: QVQLKESGPGLVAPSQSLSITCTVSEFSLTTYGVSWVRQPPGKGLEWLGVIWGDGSTNYHSALISRLSISKDTSKSQVFLKLNSLQTDDTATYYCAKPGLRNAMDYWGQGTSVTVSS VL: DIVMTQSPSSLSVSAGEKVTMSCKSSQSLLNSGNQKNYLAWYQQKPGQPPKLLIYGASTRESGVPDRFTGSGSGTDFTLTISSVQAEDLAVYYCQNDLIYPLTFGAGTKLELK
Ans. 9.24

Qu. # return recorded pEC50 for entry ch-32G8 (antibody, V domains shown, also called chimeric antibody of clone 32G8) VH: EVHLQQSGPVLVKPGASVKMSCKASGYTFTDYHMNWVKQSHGKSLEWIGVINPYNGGIRYNQKFKGKATLTVDKSSSTAYMELNSLTSEDSAVYYCATIYYGNSFAYWGQGTLVTVSA VL: DIVMTQSPSSLTVTAGEKVTMSCKSSQSLLNSGNQKNYLTWYQQKPGQPPKLLIYWASTRESGVPDRFTGSGSGTDFTLTISSVQAEDLAVYYCQNNYIYPFTFGGGTKLEIR
Ans. 9.08

Next binder, please.
Qu. // fetch pEC50 given entry ch-37G8 (antibody, V domains shown, also called chimeric antibody of clone 37G8) VH: EVQLQQSGPVLVKPGASVKMSCKASGYTFSDYHMNWVKQSHGKSLEWVGLINPYNGGIRFNQKFKGKATLTVDKSSSTAYMELNSLTSEDSAVYYCATIYYGNSFAYWGQGTLVTVSA VL: DIVMTQSPSSLTVTAGEKVTLTCKSGQSLLNSGNQKNYLTWYQQKPGQPPKLLIYWASTRESGVPDRFTGSGSGTDFTLTISGVQAEDLAVYYCQNDYFYPYTFGGGTKLEIK
Ans. 8.77
